Field: Glucose Levels, MEAN % Control, +Insulin. Provide a value for each of the substances that follow.
System: H4IIE Rat Hepatoma Cells
Assay: Insulin-dependent effect on glucose production by cultured rat liver cells
Format: cell-based
Conditions: peptide 10 μM + insulin 800 pM, 24 hour; percent of insulin (800 pM)
Protocol: The effect of the peptides on glucose production was assessed in the absence and presence of insulin using an assay of glucose levels in cultured cells such as rat hepatocytes. Peptides were initially prepared as 10 mM stock in DMSO and used at a final concentration of 10 μM (0.1% DMSO). Insulin (800 pM) was used as a partial inhibitor of glucose production. […] After 24 hour incubation, conditioned medium from each well was transferred to a fresh 96-well plate for quantitation of glucose content. […]
Non-standard residues stand in square brackets, D forms with d. Primed or numbered codes have the meaning given here. No end group written: not given here. PEG12′ = not defined here; Nle = CCCC[C@H](N)C(=O)O
One number for each entry, in %.

Solved entries (count: 5):
RVIRMCLNVGLNGEL(dA)E (RVIRMCLNVGLNGEL[dA]E) [SEQ ID NO: 20]
75.1
RVIR(Nle)SLNVGLEGEL(dA) (RVIR[Nle]SLNVGLEGEL[dA]) [SEQ ID NO: 14]
97.8
RVIR(Nle)CLNVGLLGEL(dA)G (RVIR[Nle]CLNVGLLGEL[dA]G) [SEQ ID NO: 6]
82.5
RVIRMSLNVGLLGEL(dA)G (RVIRMSLNVGLLGEL[dA]G) [SEQ ID NO: 7]
74.4
R(dA)IR(Nle)SLNVGLLGEL(dA) (R[dA]IR[Nle]SLNVGLLGEL[dA]) [SEQ ID NO: 15]
95.2

Could you report Glucose Levels, MEAN % Control, +Insulin for every entry in the following list?
1. RVIRMCLNVGLNGE [SEQ ID NO: 21]
2. RVIRMCLNVGLEGEL(dA) (RVIRMCLNVGLEGEL[dA]) [SEQ ID NO: 19]
3. RVIRMCLGVGLLGDLAG [SEQ ID NO: 3]
4. {PEG12}KRVIRMCLNVGLLGEL(dA)E ([PEG12′]KRVIRMCLNVGLLGEL[dA]E) [SEQ ID NO: 18]

// result
1. 78.2
2. 3.7
3. 39.9
4. 95.4

---

Test system: H4IIE Rat Hepatoma Cells
Assay: Insulin-dependent effect on glucose production by cultured rat liver cells
Assay type: cell-based
Settings: peptide 10 μM + insulin 800 pM, 24 hour; percent of insulin (800 pM)
Positions of bridges follow the written chain, without caps; N, C: chain ends. Non-standard residues stand in square brackets, D forms with d. Primed or numbered codes have the meaning given here. Chains are numbered I, II in the order given. No end group written: not given here. PEG12′ = not defined here; Nle = CCCC[C@H](N)C(=O)O
endpoint: Glucose Levels, MEAN % Control, +Insulin (%)
Answers are plain numbers, in %.

Consider the following illustrative entries.
RVIRMCLGVGLLGDLAG (disulfide I:6-II:6) [SEQ ID NO: 26]
21
RVIRMCLNNGLLGEL(dA)G (RVIRMCLNNGLLGEL[dA]G) [SEQ ID NO: 9]
19.1
RVIRMCLGVGLLGDLAGK{PEG12} (chain 1 RVIRMCLGVGLLGDLAGK(PEG12′); chain 2 RVIRMCLGVGLLGDLAGK(PEG12′); disulfide I:6-II:6) [SEQ ID NO: 28]
23.9

Provide Glucose Levels, MEAN % Control, +Insulin for all items below, preserving their order.
1. RVIRMCLNNGLNGEL(dA)E (RVIRMCLNNGLNGEL[dA]E) [SEQ ID NO: 23]
2. RVIRMSLNVGLEGEL(dA) (RVIRMSLNVGLEGEL[dA]) [SEQ ID NO: 13]
3. RVIR(Nle)SLNVGLLGEL(dA)G (RVIR[Nle]SLNVGLLGEL[dA]G) [SEQ ID NO: 8]
4. RVIRMCLNVGLNGEL(dA)G (RVIRMCLNVGLNGEL[dA]G) [SEQ ID NO: 11]
5. RVIRMCLNVGLLGEL(dA)E (RVIRMCLNVGLLGEL[dA]E) [SEQ ID NO: 12]

// result
1: 3.1; 2: 46.8; 3: 63.5; 4: 32.7; 5: 57.8
